Test: protein stability index of a GFP-peptide fusion (yeast GPS) (PSI 1-4); higher = more stable; sorted into four equal gates, so the index is relative within each strain
Conditions: san1∆
Property Name: protein stability index
Reply: number alone, nothing else.

Below, each entry is followed by its recorded protein stability index result.
AFSYPRMYEEASGKEVE [RPN2] = 1.28
TYDKETITDLIEQGIPK [SIR4] = 3.35
DYRPAEETEAQAEPVEA [RPS3] = 3.14
YNTRKNAVTAAAANNNI [GAL11] = 2.67
YMDCLLYDLRASYAKIE [SNU114] = 1.81

Task: # protein stability index lookup, item LNLDSEQTVEYMVSRAI [RPN3]
Output: 2.93

Task: Now give it for ILEDFRVIKDFKKLNSK [YMR153W/NUP53] too.
Output: 3.58

Task: Now give it for LKKQLHVSHEAMREVND [YIL149C/MLP2] too.
Output: 2.91

---

Assay: protein stability index of a GFP-peptide fusion (yeast GPS) (PSI 1-4); higher = more stable; sorted into four equal gates, so the index is relative within each strain
Details: san1∆
Label not satisfied if protein stability index falls below 3; label satisfied in every other case.

Task: Assess whether reported protein stability index for VSTAKFSGKYLKYLTKK [RPL22A] sits at 3 or higher.
Output: satisfied

Task: Now give it for KRDAKAAGSYYVEAQHK [RPL7A] too.
Output: satisfied

Task: Now give it for QQIPLLCYMAPMTVKLV [POP3] too.
Output: not satisfied

Task: Now give it for RQLTSMEFSNLYKEFFN [NUT1] too.
Output: not satisfied

Task: Now give it for ELLLTTLSVSHGINLQN [SSN2] too.
Output: not satisfied

Task: Now give it for VSMYQNSSTSSTSNTPS [YDL088C/ASM4] too.
Output: not satisfied

Task: Now give it for SLDAREANFDLINIDTS [RPC40] too.
Output: satisfied

Task: Now give it for WKFKSLIEILRLRALQL [RRI2] too.
Output: not satisfied

Task: Now give it for KSNGSSDDDNIGQSEEL [ISW2] too.
Output: satisfied

---

Assay: protein stability index of a GFP-peptide fusion (yeast GPS) (PSI 1-4); higher = more stable; sorted into four equal gates, so the index is relative within each strain
Settings: pdr5∆
Property Name: protein stability index

TNKGPLAQIWLASNMSN [MCD1] = 1.26
PEKKEMIQEVIVEEDLE [FAS2] = 3.31
ESDSKLQCHISGTTNFM [UBP6] = 2.69
SVTETESISQTPISNEQ [SRP68] = 3.01
AKGCEVVVSGKLRAARA [RPS3] = 3.24

Task: # protein stability index lookup, item GAIILTKMDGHARGGGA [SRP54]
Output: 3.13

Task: Now give it for SEYSSEASNTPIEHQFN [PRE7] too.
Output: 3.21

Task: Now give it for HAERDLALAETLKLRAR [SRP68] too.
Output: 2.74

---

Experiment: protein stability index of a GFP-peptide fusion (yeast GPS) (PSI 1-4); higher = more stable; sorted into four equal gates, so the index is relative within each strain
Settings: doa10∆
Label Not met if protein stability index falls below 3; label Met in every other case.

DLEEAYATQVKTDNTVD [RPT3] = Not met

Task: Assess whether reported protein stability index for MATNKIETLDPALIRPG [RPT2] sits at 3 or higher.
Output: Met

Task: Now give it for LIQDLLHRLTPKNVKGE [RPN1] too.
Output: Met

Task: Now give it for PEGTLSGGSRNTSESLL [SMC2] too.
Output: Met

Task: Now give it for ILLAGRFRGKRVVYLKH [RPL6A] too.
Output: Not met

Task: Now give it for NVFHGLCAGANNPKIQT [IRR1] too.
Output: Not met

Task: Now give it for ERDEQKRAEKKAKERLQ [SNF2] too.
Output: Met

Task: Now give it for INVLTDQNPIQVVVDAI [RPS5] too.
Output: Not met
